src = patent US20230168249A1

Target: T1, HCoV-HKU1-N protein (HCoV-HKU1, UniProt Q5MQC6 1-441)
T1 construct: also called HKU1-CoV N
T1 chain: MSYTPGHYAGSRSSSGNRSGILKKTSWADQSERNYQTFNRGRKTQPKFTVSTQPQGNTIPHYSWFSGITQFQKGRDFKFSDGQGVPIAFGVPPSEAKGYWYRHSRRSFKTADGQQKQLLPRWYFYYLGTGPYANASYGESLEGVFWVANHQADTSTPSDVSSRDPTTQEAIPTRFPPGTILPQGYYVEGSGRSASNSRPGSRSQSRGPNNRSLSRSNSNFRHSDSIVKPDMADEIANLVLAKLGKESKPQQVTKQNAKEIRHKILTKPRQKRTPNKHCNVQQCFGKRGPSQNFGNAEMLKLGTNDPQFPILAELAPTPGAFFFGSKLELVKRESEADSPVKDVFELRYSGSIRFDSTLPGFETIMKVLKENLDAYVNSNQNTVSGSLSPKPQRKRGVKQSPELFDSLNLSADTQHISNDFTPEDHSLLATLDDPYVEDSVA
Test: ELISA, IgG1 on recombinant N protein
Provide the reported EC50 of each item.

Quick one: EC50 for antibody #7 (antibody, V domains shown, also called C07) VH: EVQLVESGGGLVQPGGSLRLSCAASGFTIEDRWIHWVRQAPGKGLEWVASIWPMEGLTRYADSVKGRFTISADTSKNTAYLQMNSLRAEDTAVYYCARGYYGFDYWGQGTLVTVSS VL: DIQMTQSPSSLSASVGDRVTITCRASQDVEARVAWYQQKPGKAPKLLIFTSTRLYSGVPSRFSGSGSGTDFTLTISSLQPEDFATYYCQQIMPLPTTFGQGTKVEIKR ? > 2 µg/mL

Next record, please: antibody #11 (antibody, V domains shown, also called D11; C11) VH: EVQLVESGGGLVQPGGSLRLSCAASGFTIQDRMIHWVRQAPGKGLEWVASILPFLGATWYADSVKGRFTISADTSKNTAYLQMNSLRAEDTAVYYCARSWFSPFDYWGQGTLVTVSS VL: DIQMTQSPSSLSASVGDRVTITCRASQDVGGSVAWYQQKPGKAPKLLISFPGGLYSGVPSRFSGSGSGTDFTLTISSLQPEDFATYYCQQYFSWPITFGQGTKVEIKR > 2 µg/mL
